Source: PubChem BioAssay (NCI)

test system: SK-MEL-2 melanoma; assay: NCI-60 one-dose screen, 48 h (100 = growth as untreated, 0 = no growth, -100 = all killed); details: 10 µM unless noted
Compounds without any hit were thinned out: in the full panel of roughly 83,000, 20% have a hit. The source made the active and inactive calls. The calls were made as follows: active = growth percent below 10; inactive = the rest.
READOUT: growth

Known growth results, listed for orientation:
CCOC(=O)C(Cc1ccccc1)(C(=O)OCC)C(Br)C(=O)c1ccccc1 (stereo not given): 83.5% (inactive)
O=C(Nc1cccc([N+](=O)[O-])c1)c1cccc(C(=O)Nc2cccc([N+](=O)[O-])c2)c1: 63.7% (inactive)
CN(C)c1ccc(/C=C(\C#N)c2nc3ccccc3c(=O)[nH]2)cc1: 36.5% (inactive)
COc1ccc(-c2c(-c3cc(OC)c(OC)c(OC)c3)noc2N)cc1: 72.6% (inactive)
CCC(C)CC(C)C(=O)c1c(O)ccn(OC)c1=O (stereo not given): 102% (inactive)

// lookup growth for `COc1ccc(-c2cncn2-c2ccc(-c3nc4cc(OC)c(OC)c(OC)c4s3)cc2)cc1N`
7.6% (active)

// lookup growth for `O=C(COC(=O)[C@H](C[Se][Se]C[C@H](NC(=O)c1ccc(Br)cc1F)C(=O)OCC(=O)c1ccc(F)cc1)NC(=O)c1ccc(Br)cc1F)c1ccc(F)cc1`
-58.9% (active)

// lookup growth for `N#Cc1c(N2CCOCC2)nc2sc3cc(Cl)ccc3n2c1=N`
103% (inactive)

// lookup growth for `C=CCCCCCCCCC(=O)[O][Sn]([CH2]CCC)([CH2]CCC)[CH2]CCC`
-71.2% (active)

// lookup growth for CCC(CCC(C)C1CCC2C3CC=C4CC(O)CCC4(C)C3CCC12C)C(C)C (stereo not given) (tested in a mixture with another compound)
24.3% (inactive)

// lookup growth for `COc1ccc2c3c(c(OCCCN(C)C)nc2c1)-c1ccc(Cl)cc1C3=O`
72.5% (inactive)

// lookup growth for COc1cc(/C=C2\CCC/C(=C\c3ccc(OCC4CO4)c(OC)c3)C2=O)ccc1OCC1CO1 (stereo not given)
49.7% (inactive)

// lookup growth for `NC(N)=NN=c1c(=O)c2ccccc2c1=O`
118% (inactive)

// lookup growth for `CCS(=O)(=O)OCCCl`
83.7% (inactive)

// lookup growth for `c1cncc(CNc2ccccc2-c2nnc(Nc3ccc4c(c3)OCO4)o2)c1`
65.8% (inactive)

* * *

tested on: HOP-62 NSCLC; assay: NCI-60 one-dose screen, 48 h (100 = growth as untreated, 0 = no growth, -100 = all killed); conditions: 10 µM unless noted
The panel holds about 83,000 compounds, 20% with a hit somewhere; the sample as a whole holds those more often. Active and inactive are the calls of the source. The calls were made as follows: active = growth percent below 10; inactive = the rest.
As shown below, each of these compounds has a reported growth value.

Known growth results, listed for orientation:
O=C(C(=O)N1CCOCC1)c1ccc(OC2OC(CO)C(O)C(O)C2O)cc1 (stereo unspecified): 107% (inactive)
O=C(CSCC(=O)N/N=C/c1ccccc1O)N/N=C\c1ccccc1O: 25.3% (inactive)

// lookup growth for O=c1[nH]c(=O)n(C2CC(O)C(CO)O2)cc1C(F)(F)F (stereo unspecified)
33.1% (inactive)

// lookup growth for `CN(C)c1ccc(/C=C\c2ccnc3ccccc23)cc1`
82% (inactive)

// lookup growth for `CCC[C@H](N[C@@H](C)C(=O)N1[C@H](C(=O)O)C[C@@H]2CCCC[C@@H]21)C(=O)OCC`
123% (inactive)

* * *

As shown below, each of these molecules has a reported growth value.
test system: SNB-19 CNS; assay: NCI-60 one-dose screen, 48 h (100 = growth as untreated, 0 = no growth, -100 = all killed); conditions: 10 µM unless noted
About 83,000 compounds went through this panel and 20% of them were active in at least one assay; those are over-represented in the sample as a whole.
Report only the number, with the unit % understood.

COc1ccc(/C=C/C(=O)Nc2cccnc2Nc2ccc(F)cc2)cc1: 87.9
O=C1Cc2cc(CCN3CCN(CCOCCO)CC3)c(Cl)cc2N1Cc1ccc(-c2ccccc2-c2nn[nH]n2)cc1: 90.5

Now for a further molecule.
// lookup growth for `O=C(C=C=Nc1ccccc1)C(=O)N=C=Cc1ccccc1`
92.3

* * *

test system: HT29 colon; assay: NCI-60 one-dose screen, 48 h; details: 10 µM unless noted
About 83,000 compounds went through this panel and 20% of them were active in at least one assay; those are over-represented in the sample as a whole. Activity calls are given as the source filed them. How the source made its calls: active means growth percent below 10; inactive means the rest.
Pick one: 1 = active, -1 = inactive

These recorded examples may help you get a feel for the data.
CN1CCN(CC(=O)Nc2nc3c(s2)Nc2cc(Cl)c(Cl)cc2NC3=O)CC1: -1
O=C(Nc1ccc(Cl)cc1Cl)Nc1ccc(-c2cccnc2)cc1N1CCC(CO)CC1: -1
Cc1nn(-c2ccccc2)c2nc3c(nc12)C(=O)CCC3: -1
Cc1c(C(N)=O)sc2c1C(=O)N(Cc1ccccc1)C1=NN=C(c3ccc(Cl)cc3)CN12: -1
Cn1c(=O)c2c(nc(Br)n2CCC(=O)Nc2ccc(F)cc2)n(C)c1=O: -1

How was `Cc1ccc(NC(=O)Nc2ccc(-c3cccnc3)cc2N2CCC(CO)CC2)cc1` classified in this test?
1

How was `COc1ccc2c(c1)nc(N)c1c3cc(OC)c(OC)cc3cn21` classified in this test?
1

How was CSc1ccc2c(c1)N(CCC1CCCCN1C)c1ccccc1S2 (centres undefined) classified in this test?
-1

How was `C/C(=C\CCc1ccsc1)CC/C=C(\C)CCCN1CCC(CO)CC1` classified in this test?
1

* * *

test system: IGROV1 ovarian; assay: NCI-60 one-dose screen, 48 h; conditions: 10 µM unless noted
Compounds without any hit were thinned out: in the full panel of roughly 83,000, 20% have a hit. The source made the active and inactive calls. How the source made its calls: active means growth percent below 10; inactive means the rest.
Pick one: active, inactive

These recorded examples may help you get a feel for the data.
COc1ccc(C(=O)C(C)Br)cc1OC (centres undefined): inactive
CC(C)(C)c1ccc(S(=O)(=O)O)s1: active
COc1cc(/C=C/C(=O)c2c(-c3ccc(Cl)cc3)nc3sc(C)nn23)cc(OC)c1OC: inactive
COc1cc(/C=C/C(=O)Nc2cccnc2Nc2cc(OC)c(OC)c(OC)c2)cc(OC)c1OC: inactive
CSc1nc2c(c(=O)[nH]1)C(c1ccc(Cl)cc1)C1=C(N2)/C(=C/c2ccc(Cl)cc2)CNC1 (centres undefined): inactive

How was `COc1cccc(/C=C2\COc3ccc(O)c(O)c3C2=O)c1OC` classified in this test?
active

How was `COc1c(C)c2c(c(O)c1C/C=C(\C)CCC(=O)OCCN1CCOCC1)C(=O)OC2` classified in this test?
inactive

How was `Cc1nn(-c2ccc(Cl)cc2)c2nc3c(nc12)c(=O)oc1ccccc13` classified in this test?
inactive

How was `Cn1c(=O)c2c(nc(Br)n2CCC(=O)Nc2ccc(F)cc2)n(C)c1=O` classified in this test?
inactive

How was `C[n+]1c2ccccc2c(NC2CCNCC2)c2[nH]c3ccccc3c21` classified in this test?
active

How was CCCCC1Nc2nc(SC)n(C)c(=O)c2CN(Cc2ccccc2)C1=O (centres undefined) classified in this test?
inactive

How was CC1SC(c2c(Cl)cccc2Cl)N(NC(=O)c2[nH]c3ccc(F)cc3c2-c2ccccc2)C1=O (centres undefined) classified in this test?
active

How was `CC(C)C/C(=N\NC(=O)c1ccncc1)c1cc(Cl)ccc1O` classified in this test?
active

How was CCOC(=O)C(C(C)=O)c1nc2sc3cc(Cl)ccc3n2c(=N)c1C#N (centres undefined) classified in this test?
inactive

How was `Cc1ccccc1-c1cc(Cc2ccccc2O)c(=O)[nH]n1` classified in this test?
inactive

How was `N#Cc1c(N)[nH]c(S)c1C#N` classified in this test?
inactive

* * *

As shown below, each of these compounds has a reported growth value.
tested on: DU-145 prostate; assay: NCI-60 one-dose screen, 48 h (100 = growth as untreated, 0 = no growth, -100 = all killed); details: 10 µM unless noted
This is part of a sample that, as a whole, favours compounds with a hit. Of some 83,000 tested, about 20% had one in any assay.
Report only the number, with the unit % understood.

Known growth results, listed for orientation:
O=C(O)c1ccccc1C(=O)OC1CCCC2CCCC21 (stereo not given): 103
Cc1ccccc1NC(=O)c1cc2ccccc2cc1O: 20.2
CCCCc1nc(Cl)c(CO)n1Cc1ccc(-c2ccccc2-c2nn[nH]n2)cc1: 110
CSc1ncc2ncn(C3OC(CO)C(O)C3O)c2n1 (stereo not given): 115
CCOC(=O)C1=C(C)N2C(=NC3=C(CCC/C3=C\c3ccc(Cl)cc3)C2c2ccc(Cl)cc2)S1 (stereo not given): -0.137
COc1ccc(-c2nnc(COc3ccc(NC(=O)Nc4cc(C(F)(F)F)cc(C(F)(F)F)c4)cc3F)o2)cc1: 12.4
CN(CCOc1ccc(CC2SC(=O)NC2=O)cc1)c1ccccn1 (stereo not given): 107
NC(=O)N/N=C/c1ccc(Br)o1: 110
[O-]/[N+](=C\C=C\c1ccccc1)c1ccccc1: 111
S=c1[nH]nc2sc3ccccc3n12: 121

// lookup growth for `Clc1nc(Cl)c2ncn(-c3ccccc3)c2n1`
36.7

// lookup growth for CCOc1cccc(C2CC(=O)Nc3cc4c(cc32)OCO4)c1 (stereo not given)
94.5

// lookup growth for `CCC[C@H](N[C@@H](C)C(=O)N1[C@H](C(=O)O)C[C@@H]2CCCC[C@@H]21)C(=O)OCC`
111

// lookup growth for `CCCc1nn(C)c2c(=O)[nH]c(-c3cc(S(=O)(=O)N4CCN(C)CC4)ccc3OCC)nc12`
113

// lookup growth for `NNC(=O)NO`
109

// lookup growth for `CCOc1nc(-c2ccccc2)cc2c(O)c(C(=O)n3nc(C)cc3C)[nH]c(=O)c12`
111

// lookup growth for `O=C(/C=C/c1ccccc1Cl)c1ccc(O)cc1`
-7.3

// lookup growth for `COc1cccc(CCC2C(=O)CCCC2=O)c1`
105

// lookup growth for `O=C(NCCCO)c1cc(Cl)ccc1O`
36.1

// lookup growth for `O=C(CSc1nnc(Nc2ccccc2)s1)NCCc1ccc(F)cc1`
105

// lookup growth for `O=C1N(C2CCCCC2)C(=O)N1C1CCCCC1`
38.7

// lookup growth for O=C1C2C3C=CC(O3)C2C(=O)N1Nc1ccccc1 (stereo not given)
112

// lookup growth for `O=C(OCCBr)c1ccc(Cl)c([N+](=O)[O-])c1`
14.6

// lookup growth for `Cc1nn(-c2ccc(Cl)cc2)c2nc3c(nc12)C(=O)C(=O)c1ccccc1-3`
-22

// lookup growth for `COc1ccc(OC)c2c1[nH]c(=O)c1c3ccccc3cn21`
-65

// lookup growth for `Cc1c(C(N)=O)sc2c1c(=O)n(Cc1ccccc1)c1nnc(SCC(=O)Nc3ccc(Cl)cc3)n21`
39.5

// lookup growth for CCOC(=O)c1c(NC(=O)C2CCCCC2C(=O)O)sc2c1CCCC2 (stereo not given)
108

// lookup growth for `COc1ccc2[nH]cc(/C=C3/C(=O)Nc4ccc(F)cc43)c2c1`
95.3
